Measured values drawn from ChEMBL document CHEMBL1781926 for this set.

Ki reference
Experimental target: Adrenergic receptor alpha-1 (Rattus norvegicus, UniProt P15823+P23944+P43140)
Sequence (P15823 whole entry): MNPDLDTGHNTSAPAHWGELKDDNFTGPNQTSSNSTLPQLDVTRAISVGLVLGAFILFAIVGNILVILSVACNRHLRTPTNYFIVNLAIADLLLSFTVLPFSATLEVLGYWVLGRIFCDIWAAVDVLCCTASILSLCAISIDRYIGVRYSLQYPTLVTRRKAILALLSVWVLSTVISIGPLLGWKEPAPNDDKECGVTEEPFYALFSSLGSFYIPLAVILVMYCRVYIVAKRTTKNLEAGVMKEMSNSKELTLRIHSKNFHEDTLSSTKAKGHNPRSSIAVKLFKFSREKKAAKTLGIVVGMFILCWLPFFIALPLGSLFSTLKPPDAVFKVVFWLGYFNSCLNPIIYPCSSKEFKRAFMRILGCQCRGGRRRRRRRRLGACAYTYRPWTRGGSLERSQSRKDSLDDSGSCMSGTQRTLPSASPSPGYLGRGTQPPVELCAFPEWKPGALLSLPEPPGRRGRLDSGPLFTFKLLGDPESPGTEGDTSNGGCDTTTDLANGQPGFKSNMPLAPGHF
Sequence (P23944 whole entry): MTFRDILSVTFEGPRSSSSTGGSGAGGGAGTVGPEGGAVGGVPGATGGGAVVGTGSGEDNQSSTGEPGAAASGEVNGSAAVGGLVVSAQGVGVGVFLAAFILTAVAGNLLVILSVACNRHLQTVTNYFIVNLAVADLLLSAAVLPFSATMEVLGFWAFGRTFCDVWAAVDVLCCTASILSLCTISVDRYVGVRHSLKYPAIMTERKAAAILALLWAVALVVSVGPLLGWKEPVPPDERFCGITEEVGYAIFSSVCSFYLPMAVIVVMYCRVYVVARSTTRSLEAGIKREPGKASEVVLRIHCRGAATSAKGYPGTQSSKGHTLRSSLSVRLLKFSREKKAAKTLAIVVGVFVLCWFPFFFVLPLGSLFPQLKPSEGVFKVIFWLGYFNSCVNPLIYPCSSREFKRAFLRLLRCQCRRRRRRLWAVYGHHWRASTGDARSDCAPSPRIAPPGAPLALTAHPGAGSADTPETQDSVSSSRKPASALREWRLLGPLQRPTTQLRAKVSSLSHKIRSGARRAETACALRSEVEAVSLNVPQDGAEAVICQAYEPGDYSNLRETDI
Sequence (P43140 whole entry): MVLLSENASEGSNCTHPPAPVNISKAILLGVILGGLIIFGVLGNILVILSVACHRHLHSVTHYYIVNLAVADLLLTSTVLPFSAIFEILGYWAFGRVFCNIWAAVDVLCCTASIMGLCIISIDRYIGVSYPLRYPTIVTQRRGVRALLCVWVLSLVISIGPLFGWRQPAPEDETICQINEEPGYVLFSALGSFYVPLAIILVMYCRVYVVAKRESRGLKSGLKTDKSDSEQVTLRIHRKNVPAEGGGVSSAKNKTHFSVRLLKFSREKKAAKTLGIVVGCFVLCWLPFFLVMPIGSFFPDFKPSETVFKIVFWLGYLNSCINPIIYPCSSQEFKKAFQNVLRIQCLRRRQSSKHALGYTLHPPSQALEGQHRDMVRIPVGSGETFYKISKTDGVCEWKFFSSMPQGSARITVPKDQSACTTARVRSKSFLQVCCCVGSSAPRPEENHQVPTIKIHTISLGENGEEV
Measurement notes: Displacement [3H]prazosin from alpha1 adrenergic receptor in rat brain cortex homogenates after 30 mins by liquid scintillation counting
Type: tissue-based

Compound | Value type | Reported
O=c1c2ccccc2nnn1CCCN1CCN(c2cccc3ccccc23)CC1 | Ki | 0.562 µM

(Q) Quick check: Ki on Adrenergic receptor alpha-1 (Rattus norvegicus, UniProt P15823+P23944+P43140), item N#C/N=C(\NCCCN1CCN(c2cccc3ccccc23)CC1)c1ccncc1 ?
(A) > 10 µM

(Q) Quick check: Ki on Adrenergic receptor alpha-1 (Rattus norvegicus, UniProt P15823+P23944+P43140), item O=c1c2ccccc2nnn1CCN1CCN(c2cccc3ccccc23)CC1 ?
(A) 0.112 µM

(Q) Quick check: Ki on Adrenergic receptor alpha-1 (Rattus norvegicus, UniProt P15823+P23944+P43140), item O=C1C2C3C=CC(C3)C2C(=O)N1OCCN1CCN(c2cccc3ccccc23)CC1 (stereo not drawn) ?
(A) > 10 µM

(Q) Quick check: Ki on Adrenergic receptor alpha-1 (Rattus norvegicus, UniProt P15823+P23944+P43140), item O=c1c2ccccc2nnn1OCCCN1CCN(c2cccc3ccccc23)CC1 ?
(A) 0.8 µM

(Q) Quick check: Ki on Adrenergic receptor alpha-1 (Rattus norvegicus, UniProt P15823+P23944+P43140), item O=C1C2C3C=CC(C3)C2C(=O)N1OCCCN1CCN(c2cccc3ccccc23)CC1 (stereo not drawn) ?
(A) > 10 µM

(Q) Quick check: Ki on Adrenergic receptor alpha-1 (Rattus norvegicus, UniProt P15823+P23944+P43140), item O=c1c2ccccc2nnn1OCCN1CCN(c2cccc3ccccc23)CC1 ?
(A) > 10 µM

(Q) Quick check: Ki on Adrenergic receptor alpha-1 (Rattus norvegicus, UniProt P15823+P23944+P43140), item N#C/N=C(\NCCCN1CCN(c2cccc3ccccc23)CC1)c1ccccn1 ?
(A) > 10 µM
